Experiment: Effect on Wnt signaling pathway in human SW480 cells harbouring TCF/LEF luciferase reporter gene and SP5-Luc reporter gene incubated for 36 to 48 hrs by luminescence assay
Type: cell-based
pEC50: −log10 of the molar value.
Property: pEC50; scope: individual compounds

inputSmiles: CC(C)Nc1cncc(-c2cnc3[nH]nc(-c4nc5c(-c6cccc(F)c6)cncc5[nH]4)c3c2)c1
cmp: =
pEC50: 8.92
//
inputSmiles: CCNCc1cncc(-c2cc3c(-c4cc5c(-c6cccnc6)cncc5[nH]4)n[nH]c3cn2)c1
cmp: =
pEC50: 5.43
//
inputSmiles: CCC(=O)Nc1cncc(-c2cnc3[nH]nc(-c4nc5c(-c6ccsc6)cccc5[nH]4)c3c2)c1
cmp: =
pEC50: 8.00
//
inputSmiles: C[C@@H]1CN(c2ccc(NC(=O)c3n[nH]c4ccc(-c5cncc(CN6CCCCC6)c5)cc34)cn2)C[C@H](C)O1
cmp: =
pEC50: 8.55
//
inputSmiles: O=C(Nc1cncc(-c2cnc3[nH]nc(-c4cc5c(-c6ccccc6F)nccc5[nH]4)c3c2)c1)C1CC1
cmp: =
pEC50: 6.49
//
inputSmiles: CC(C)CC(=O)Nc1cncc(-c2ccc3[nH]nc(-c4cc5c(-c6ccccc6F)nccc5[nH]4)c3n2)c1
cmp: =
pEC50: 6.22
//
inputSmiles: c1cncc(-c2cnc3[nH]nc(-c4nc5c(-c6cccs6)cccc5[nH]4)c3c2)c1
cmp: =
pEC50: 7.92
//
inputSmiles: CN1CCC(Oc2ccc3[nH]c(-c4n[nH]c5ccc(-c6cnn(C)c6)cc45)nc3c2)CC1
cmp: =
pEC50: 7.74
//
inputSmiles: Nc1cncc(-c2ccc3[nH]nc(-c4nc5c(-c6ccccc6F)cncc5[nH]4)c3n2)c1
cmp: <
pEC50: 5.00
//
inputSmiles: CN1CCN(c2cncc3[nH]c(-c4n[nH]c5ccc(-c6cncc(NC(=O)CC(C)(C)C)c6)cc45)cc23)CC1
cmp: =
pEC50: 5.46
//
inputSmiles: CN1CCN(c2cncc3[nH]c(-c4n[nH]c5ccc(-c6cccnc6)cc45)nc23)CC1
cmp: =
pEC50: 7.28
//
inputSmiles: CC(C)Nc1cncc(-c2cnc3[nH]nc(-c4cc5c(-c6cccnc6)ccnc5[nH]4)c3c2)c1
cmp: <
pEC50: 5.00
//
inputSmiles: O=C(Nc1cncc(-c2ccc3[nH]nc(-c4nc5c(-c6ccc(Cl)s6)nccc5[nH]4)c3n2)c1)C1CCC1
cmp: =
pEC50: 6.08
//
inputSmiles: O=C(Nc1cc2cc(-c3cncc(NC4CCNCC4)n3)ccc2cn1)C1CC(F)(F)C1
cmp: =
pEC50: 6.42
//
inputSmiles: COc1cncc(C(=O)Nc2c[nH]nc2C(=O)Nc2ccc(CN(C)C)cc2)c1
cmp: =
pEC50: 6.91
//
inputSmiles: O=C(Nc1cccnc1)c1n[nH]c2ncc(-c3cccnc3)cc12
cmp: =
pEC50: 6.10
//
inputSmiles: CN1CCN(c2ccc(NC(=O)c3n[nH]c4ccc(-c5cncc(NC(=O)C6CC6)c5)cc34)cn2)CC1
cmp: =
pEC50: 7.10
//
inputSmiles: Nc1cncc(-c2cnc3[nH]nc(-c4cc5c(-c6ccncc6)cncc5[nH]4)c3c2)c1
cmp: <
pEC50: 5.00
